All values here come from ChEMBL document CHEMBL1154430.

- Method Description: Solubility in 1.0N HCl
- Format: physicochemical
- Condition Details: buffer

Compound	solubility
CCOC(=O)CCC(NC(=O)C1CCn2c(C(=O)c3ccccc3)ccc21)C(=O)OCC (racemic)	Insoluble
CCOC(=O)CNC(=O)C1CCn2c(C(=O)c3ccccc3)ccc21 (racemic)	Insoluble
O=C(c1ccccc1)c1ccc2n1CCC2C(=O)O (stereo unspecified)	Insoluble
CCOC(=O)CCNC(=O)C1CCn2c(C(=O)c3ccccc3)ccc21 (racemic)	Insoluble
CCOC(=O)C(CC(C)C)NC(=O)C1CCn2c(C(=O)c3ccccc3)ccc21 (racemic)	Insoluble
CCOC(=O)C(NC(=O)C1CCn2c(C(=O)c3ccccc3)ccc21)C(C)C (racemic)	Insoluble
CCOC(=O)C(C)NC(=O)C1CCn2c(C(=O)c3ccccc3)ccc21 (racemic)	Insoluble
CCOC(=O)C(NC(=O)C1CCn2c(C(=O)c3ccccc3)ccc21)C(C)CC (racemic)	Insoluble
CCOC(=O)CC(NC(=O)C1CCn2c(C(=O)c3ccccc3)ccc21)C(=O)OCC (racemic)	Insoluble
CCOC(=O)C(Cc1c[nH]c2ccccc12)NC(=O)C1CCn2c(C(=O)c3ccccc3)ccc21 (racemic)	Insoluble
CCOC(=O)C(Cc1ccccc1)NC(=O)C1CCn2c(C(=O)c3ccccc3)ccc21 (racemic)	Insoluble

###

- Method Description: Chloroform-PBS partition coefficient, log K at pH 7.4
- Type: physicochemical
- Condition Details: chloroform/PBS, pH 7.4
Entries and their measured K follow.
Assay Metric: K

Molecule	Measured Result
CCOC(=O)C(NC(=O)C1CCn2c(C(=O)c3ccccc3)ccc21)C(C)C (racemic)	20
CCOC(=O)CC(NC(=O)C1CCn2c(C(=O)c3ccccc3)ccc21)C(=O)OCC (racemic)	18.26
CCOC(=O)C(C)NC(=O)C1CCn2c(C(=O)c3ccccc3)ccc21 (racemic)	15.61
CCOC(=O)CCNC(=O)C1CCn2c(C(=O)c3ccccc3)ccc21 (racemic)	15.33
CCOC(=O)CCC(NC(=O)C1CCn2c(C(=O)c3ccccc3)ccc21)C(=O)OCC (racemic)	18.08
CCOC(=O)C(Cc1ccccc1)NC(=O)C1CCn2c(C(=O)c3ccccc3)ccc21 (racemic)	23.18
CCOC(=O)CNC(=O)C1CCn2c(C(=O)c3ccccc3)ccc21 (racemic)	13.81
CCOC(=O)C(NC(=O)C1CCn2c(C(=O)c3ccccc3)ccc21)C(C)CC (racemic)	23.87
CCOC(=O)C(CC(C)C)NC(=O)C1CCn2c(C(=O)c3ccccc3)ccc21 (racemic)	23.09
O=C(c1ccccc1)c1ccc2n1CCC2C(=O)O (stereo not given)	6.022

###

- Method Description: Metabolic stability in stimulated intestinal fluid assessed as half life at 10 mg by HPLC
- Assay type: ADME
- Condition Details: simulated intestinal fluid
Assay Metric: half-life (h)

Compound	Unit Symbol	Measured Result
CCOC(=O)CNC(=O)C1CCn2c(C(=O)c3ccccc3)ccc21 (racemic)	h	2.13
CCOC(=O)C(Cc1ccccc1)NC(=O)C1CCn2c(C(=O)c3ccccc3)ccc21 (racemic)	h	2.13
CCOC(=O)C(NC(=O)C1CCn2c(C(=O)c3ccccc3)ccc21)C(C)CC (racemic)	h	2.13
CCOC(=O)CC(NC(=O)C1CCn2c(C(=O)c3ccccc3)ccc21)C(=O)OCC (racemic)	h	2.13
CCOC(=O)C(CC(C)C)NC(=O)C1CCn2c(C(=O)c3ccccc3)ccc21 (racemic)	h	2.67
CCOC(=O)C(Cc1c[nH]c2ccccc12)NC(=O)C1CCn2c(C(=O)c3ccccc3)ccc21 (racemic)	h	2.98
CCOC(=O)CCC(NC(=O)C1CCn2c(C(=O)c3ccccc3)ccc21)C(=O)OCC (racemic)	h	2.13
CCOC(=O)CCNC(=O)C1CCn2c(C(=O)c3ccccc3)ccc21 (racemic)	h	2.67
CCOC(=O)C(C)NC(=O)C1CCn2c(C(=O)c3ccccc3)ccc21 (racemic)	h	2.67
CCOC(=O)C(NC(=O)C1CCn2c(C(=O)c3ccccc3)ccc21)C(C)C (racemic)	h	2.67
